Where these numbers come from: ChEMBL document CHEMBL3046041

Measured IC50, listed per entry.
Biological target: RNA-directed RNA polymerase (Hepacivirus hominis)
Sequence (O39930 whole entry): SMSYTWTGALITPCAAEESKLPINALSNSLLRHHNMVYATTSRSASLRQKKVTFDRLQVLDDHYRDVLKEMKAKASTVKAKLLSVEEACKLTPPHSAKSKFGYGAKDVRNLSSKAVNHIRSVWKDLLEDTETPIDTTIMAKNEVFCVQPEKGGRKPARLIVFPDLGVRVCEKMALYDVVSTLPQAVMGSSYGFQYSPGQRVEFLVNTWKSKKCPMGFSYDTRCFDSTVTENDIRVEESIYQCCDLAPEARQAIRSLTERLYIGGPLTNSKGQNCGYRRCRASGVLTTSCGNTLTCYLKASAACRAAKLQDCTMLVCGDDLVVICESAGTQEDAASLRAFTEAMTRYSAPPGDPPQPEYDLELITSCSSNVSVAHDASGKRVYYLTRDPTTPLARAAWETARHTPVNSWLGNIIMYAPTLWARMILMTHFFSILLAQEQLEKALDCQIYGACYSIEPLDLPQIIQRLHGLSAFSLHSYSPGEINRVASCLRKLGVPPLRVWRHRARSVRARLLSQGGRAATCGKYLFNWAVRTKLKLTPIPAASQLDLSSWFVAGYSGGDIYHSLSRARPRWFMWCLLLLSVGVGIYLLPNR
Assay: Inhibition of Hepatitis C virus NS5B RNA-dependent RNA polymerase
Details: read-out: IC50
Form entry: value (µM) — number only.

Report IC50 for N#Cc1c(-c2ccc(Cl)cc2Cl)nc(SCCCc2ccccc2)[nH]c1=O
12

Answer with the recorded IC50 of CCCCCSc1nc(-c2ccc(C(C)C)cc2)c(C#N)c(=O)[nH]1 only.
12

State its IC50 for this molecule: N#Cc1c(-c2cccc(C(F)(F)F)c2)nc(SCCC(=O)Oc2ccccc2)[nH]c1=O
13

In one line, give reported IC50 of the entry N#Cc1c(-c2ccc(Cl)cc2Cl)nc(SCc2ccc(OC(F)(F)F)cc2)[nH]c1=O .
11
